- assay.target: MMP-8 (Homo sapiens)
- Sequence (P22894 101-467, species assumed): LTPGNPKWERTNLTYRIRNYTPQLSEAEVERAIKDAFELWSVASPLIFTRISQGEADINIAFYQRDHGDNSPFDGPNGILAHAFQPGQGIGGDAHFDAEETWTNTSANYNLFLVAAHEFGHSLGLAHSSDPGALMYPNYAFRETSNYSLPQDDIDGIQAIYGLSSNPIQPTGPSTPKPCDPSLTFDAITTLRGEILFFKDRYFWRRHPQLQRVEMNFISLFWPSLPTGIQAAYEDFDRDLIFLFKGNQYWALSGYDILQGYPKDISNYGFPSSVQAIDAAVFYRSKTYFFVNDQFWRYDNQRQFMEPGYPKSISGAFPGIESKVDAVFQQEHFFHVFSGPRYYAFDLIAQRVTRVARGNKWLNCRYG
- measurement.protocol: MMP-8 of Table 3
- Format: biochemical
- condition.info: unit inferred
pIC50: −log10 of the molar value.
endpoint: pIC50

// query pIC50 value for entry CC(C)(Cc1ccccc1)NC(=O)[C@H](CCC(=O)O)NC(=O)c1ccc(-c2ccc(Cl)cc2)s1 5.65

P: Cc1ccc(-c2ccc(C(=O)N[C@@H](CCC(=O)O)C(=O)NC(C)(C)Cc3ccc(F)cc3)cc2)s1 [Example 8VVVVVVV]
Q: CC(C)(Cc1ccc(F)cc1)NC(=O)[C@H](CCC(=O)O)NC(=O)c1ccc(-c2ccc(Cl)cc2)s1
Exercise: compare P and Q ; which one has the greater pIC50? Output the label that corresponds to your choice. P
(P: 6.39, Q: 5.47)

* * *

- assay.target: purified recombinant human Aggrecanase-2 (Ag2t-Phe628-Strep) (Homo sapiens, UniProt Q9UNA0)
- Construct: the form used is denoted as Ag2t-Phe628-Strep (MW=41,737)
- Sequence (Q9UNA0 262-628): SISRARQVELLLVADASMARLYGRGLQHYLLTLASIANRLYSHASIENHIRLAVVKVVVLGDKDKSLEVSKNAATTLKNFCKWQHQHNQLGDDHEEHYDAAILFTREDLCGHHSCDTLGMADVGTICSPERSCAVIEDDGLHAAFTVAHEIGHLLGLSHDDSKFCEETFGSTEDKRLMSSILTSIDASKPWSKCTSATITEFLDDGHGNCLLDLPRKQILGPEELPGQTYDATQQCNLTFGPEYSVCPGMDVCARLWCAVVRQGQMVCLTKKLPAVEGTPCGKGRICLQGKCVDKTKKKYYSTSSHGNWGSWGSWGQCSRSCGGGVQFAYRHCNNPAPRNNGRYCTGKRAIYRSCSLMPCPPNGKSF
- measurement.protocol: In vitro fluorescence screen for Aggrecanase-2 inhibitors
- Format: biochemical
- condition.info: Table 3; read-out: Agg 2 IC50
endpoint: IC50 (nM)

// query IC50 value for entry CC(C)(Cc1ccccc1)NC(=O)[C@H](CCC(=O)O)NC(=O)c1ccc(-c2ccc(COc3ccc4c(c3)OCO4)cc2)cc1 [Example 15P] 255

P: CC(C)(Cc1ccc(F)cc1)NC(=O)[C@H](CCC(=O)O)NC(=O)c1ccc(-c2ccc(F)cc2)cc1
Q: CC(C)(Cc1ccc(F)cc1)NC(=O)[C@H](CCC(=O)O)NC(=O)c1ccc(-c2cccc(Cl)c2)cc1
R: CC(C)(Cc1ccccc1)NC(=O)[C@H](CCC(=O)O)NC(=O)c1ccc(-c2ccc(C=O)s2)cc1
S: CC(C)(Cc1ccc(Cl)cc1)NC(=O)[C@H](CCC(=O)O)NC(=O)c1ccc(-c2ccc(Cl)cc2)cc1
Sort ascending by IC50. Your reply should list the labels following the order given in the request. S, P, Q, R
(S: 25 nM, P: 83 nM, Q: 200 nM, R: 500 nM)

* * *

The reader will find reported pIC50 values listed item by item below.
- assay.target: MMP-1 (Homo sapiens, UniProt P03956)
- Sequence (P03956 100-469): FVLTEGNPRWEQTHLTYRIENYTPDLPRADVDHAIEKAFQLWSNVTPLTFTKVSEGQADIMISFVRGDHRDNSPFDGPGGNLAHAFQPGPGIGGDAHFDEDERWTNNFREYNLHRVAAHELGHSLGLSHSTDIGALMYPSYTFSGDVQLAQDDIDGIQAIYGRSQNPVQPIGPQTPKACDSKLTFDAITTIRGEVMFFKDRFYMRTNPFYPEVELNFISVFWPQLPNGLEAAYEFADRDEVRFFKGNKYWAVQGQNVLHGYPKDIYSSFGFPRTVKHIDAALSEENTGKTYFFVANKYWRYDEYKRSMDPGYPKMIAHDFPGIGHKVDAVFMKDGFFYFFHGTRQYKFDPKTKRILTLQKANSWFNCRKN
pIC50: −log10 of the molar value.

Examples with their reported pIC50 follow.
Form field: pIC50 recorded for O=C(O)CC[C@H](NC(=O)c1ccc(-c2ccccc2)cc1)C(=O)NCc1cccc(I)c1 with MMP-1 (Homo sapiens, UniProt P03956) (enter value) < 3.70

Form field: pIC50 recorded for CC(C)(Cc1ccccc1)NC(=O)[C@H](CCC(=O)O)NC(=O)c1ccc(-c2ccccc2)cc1 with MMP-1 (Homo sapiens, UniProt P03956) (enter value) < 3.70

Form field: pIC50 recorded for O=C(O)CC[C@H](NC(=O)c1ccc(-c2cccs2)cc1)C(=O)NCc1ccccc1 with MMP-1 (Homo sapiens, UniProt P03956) (enter value) ~5.70

Form field: pIC50 recorded for O=C(O)CC[C@H](NC(=O)c1ccc(-c2ccccc2)cc1)C(=O)NC1CCCCC1 with MMP-1 (Homo sapiens, UniProt P03956) (enter value) < 4.00

Next:
Form field: pIC50 recorded for O=C(O)CC[C@H](NC(=O)c1ccc(-c2ccccc2)cc1)C(=O)NC1CC1 with MMP-1 (Homo sapiens, UniProt P03956) (enter value) < 4.00

Form field: pIC50 recorded for O=C(CC[C@H](NC(=O)c1ccc(-c2ccccc2)cc1)C(=O)NCc1cccc(OC(F)(F)F)c1)NO [Example 33D] with MMP-1 (Homo sapiens, UniProt P03956) (enter value) ~5.81

Form field: pIC50 recorded for O=C(O)CC[C@H](NC(=O)c1ccc(-c2ccccc2)cc1)C(=O)NC1C2CC3CC(C2)CC1C3 (stereo partly shown) with MMP-1 (Homo sapiens, UniProt P03956) (enter value) < 4.00

Form field: pIC50 recorded for COc1cc(CNC(=O)[C@H](CCC(=O)NO)NC(=O)c2ccc(-c3ccccc3)cc2)cc(OC)c1OC [Example 33A] with MMP-1 (Homo sapiens, UniProt P03956) (enter value) 5.76

Form field: pIC50 recorded for CCOc1cccc(-c2ccc(C(=O)N[C@@H](CCC(=O)O)C(=O)NCc3ccccc3)cc2)c1 [Example 13D] with MMP-1 (Homo sapiens, UniProt P03956) (enter value) < 4.00

Form field: pIC50 recorded for C=Cc1ccc(CNC(=O)[C@H](CCC(=O)O)NC(=O)c2ccc(-c3ccccc3)cc2)cc1 [Example 10R] with MMP-1 (Homo sapiens, UniProt P03956) (enter value) < 4.30

Form field: pIC50 recorded for O=C(O)CC[C@H](NC(=O)c1ccc(-c2ccco2)cc1)C(=O)NCc1ccccc1 [Example 12A] with MMP-1 (Homo sapiens, UniProt P03956) (enter value) ~5.70

Form field: pIC50 recorded for C=Cc1cccc(CNC(=O)[C@H](CCC(=O)O)NC(=O)c2ccc(-c3ccccc3)cc2)c1 [Example 10M] with MMP-1 (Homo sapiens, UniProt P03956) (enter value) < 4.30

Form field: pIC50 recorded for COc1ccc(CCNC(=O)[C@H](CCC(=O)O)NC(=O)c2ccc(-c3ccccc3)cc2)cc1OC with MMP-1 (Homo sapiens, UniProt P03956) (enter value) < 4.00
